- tested-target: Nuclear receptor subfamily 5 group A member 2 (Homo sapiens) (UniProt O00482)
- Sequence (O00482 whole entry, looked up): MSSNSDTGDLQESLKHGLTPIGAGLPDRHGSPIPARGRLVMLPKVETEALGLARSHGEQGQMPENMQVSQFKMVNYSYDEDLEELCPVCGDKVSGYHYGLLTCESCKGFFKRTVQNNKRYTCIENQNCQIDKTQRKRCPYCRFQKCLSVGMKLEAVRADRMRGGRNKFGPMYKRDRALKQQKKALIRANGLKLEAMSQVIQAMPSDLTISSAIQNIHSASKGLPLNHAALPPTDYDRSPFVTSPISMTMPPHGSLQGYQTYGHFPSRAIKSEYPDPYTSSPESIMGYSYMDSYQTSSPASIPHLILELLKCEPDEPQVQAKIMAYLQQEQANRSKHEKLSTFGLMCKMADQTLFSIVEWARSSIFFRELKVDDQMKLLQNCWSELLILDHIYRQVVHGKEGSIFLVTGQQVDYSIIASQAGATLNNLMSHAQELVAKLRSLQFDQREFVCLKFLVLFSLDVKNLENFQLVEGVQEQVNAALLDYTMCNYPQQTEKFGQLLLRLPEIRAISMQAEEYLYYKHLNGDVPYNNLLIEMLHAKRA
- method-summary: suppression of LRH-1-driven Cyp19-luciferase signal, LRH-1 inverse agonist project, cell-based, luminescence, 3X%INH (AID 485348)
- test-parameters: HEK293T LRH-1 Cyp19-luciferase reporter, 20 h, at 5 µM
The source made the active and inactive calls.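 The calls were made as follows: active = inhibition above 25%, the campaign hit cutoff; inactive = the rest.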
I would appreciate it if you answered using one of these outcomes: active, inactive

Consider the following illustrative entries.
O=c1cc(N2CCN(c3cccc(C(F)(F)F)c3)CC2)n(Cc2ccccc2)c(=O)n1C1CCCCC1 ... inactive
Cn1c(=O)cc(N2CCN(c3cccc(Cl)c3)CC2)[nH]c1=O ... active
O=c1cc(N2CCN(c3ccccc3)CC2)[nH]c(=O)n1C1CCCCC1 ... active
CC1CCN(c2cc(=O)n(Cc3ccc(F)cc3)c(=O)[nH]2)CC1 ... inactive

Next:
### Prompt Give the logged outcome of this assay for the following compound: COc1ccc(N2CCN(c3cc(=O)n(C4CCCCC4)c(=O)[nH]3)CC2)cc1
### Response inactive
